Target: UniProtKB P29274
Test: A2a binding affinity using radioligand binding, Method (A)
Settings: Method (A): [3H]SCH58261 filtration binding
Text: The A2a receptor affinity binding assay measured the amount of binding of a tritiated ligand with high affinity for the A2a adenosine receptor to membranes made from HEK293 or CHO cells recombinantly expressing the human A2a adenosine receptor, in the presence of varying concentrations of a compound of the invention. The data were generated using either filtration binding or a homogenous scintillation proximity assay (SPA). Method (A): Measurement of A2a Binding Affinity Using Radioligand Binding […]
readout.type: pIC50
Notebook: values listed as pIC50 are -log10 of the concentration (mol/L).

> print(dat)
                                   compound     tested.target  readout.type  reported.result
1  CC(C)n1nnc2c1CCN(CCc1nc3cc(-c4cccc(C#N)c4F)nc(N)n3n1)C2 [Example 2.24]  UniProtKB P29274         pIC50             9.05
2  Cc1c(-c2ncco2)nc(N)n2nc(CCN3CCc4c(nnn4C4CC4)C3)nc12 [Example 1.16]  UniProtKB P29274         pIC50             9.52
3  Cc1c(-c2ncco2)nc(N)n2nc(Cc3ccc(C4(O)CCC4)cc3)nc12 [Example 6.3]  UniProtKB P29274         pIC50             7.77

q: # value lookup — system UniProtKB P29274, readout pIC50, item Nc1nc(-c2ccc(F)cc2)cn2nc(Cc3ccccc3)nc12 [Example 2.3]
a: 8.60

q: # value lookup — system UniProtKB P29274, readout pIC50, item Cc1c(-c2ncco2)nc(N)n2nc(CCN3CCCC(F)(F)C3)nc12 [Example 17.16]
a: 8.92

q: # value lookup — system UniProtKB P29274, readout pIC50, item Cc1c(-c2cncc(C(F)(F)F)c2)nc(N)c2nc(Cc3ccccc3)nn12 [Example 3.22]
a: 6.08

q: # value lookup — system UniProtKB P29274, readout pIC50, item CC(C)c1ncc2n1CCN(CCc1nc3c(N)nc(-c4ncco4)cn3n1)C2 [Example 17.26]
a: 6.20

q: # value lookup — system UniProtKB P29274, readout pIC50, item Cc1c(-c2cccc(F)c2)nc(N)c2nc(Cc3ccccc3)nn12 [Example 3.3]
a: 8.96

q: # value lookup — system UniProtKB P29274, readout pIC50, item Cc1c(-c2ncco2)nc(N)c2nc(Cc3ccccc3C(F)(F)F)nn12 [Example 7.3]
a: 9.30

----------
Molecular target: human A2b adenosine receptor (Homo sapiens (Human))
Sequence (P29275 whole entry): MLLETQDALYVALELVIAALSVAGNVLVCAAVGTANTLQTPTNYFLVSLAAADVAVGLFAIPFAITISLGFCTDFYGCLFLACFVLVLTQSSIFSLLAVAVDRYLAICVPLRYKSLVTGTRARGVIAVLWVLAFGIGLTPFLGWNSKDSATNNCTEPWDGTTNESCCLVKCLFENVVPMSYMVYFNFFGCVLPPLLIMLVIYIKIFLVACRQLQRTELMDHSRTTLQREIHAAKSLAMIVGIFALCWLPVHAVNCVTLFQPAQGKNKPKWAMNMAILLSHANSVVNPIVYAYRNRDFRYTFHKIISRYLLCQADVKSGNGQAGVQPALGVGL
Documented pIC50 across a set of molecules
Notebook: values listed as pIC50 are -log10 of the concentration (mol/L).

Example entries begin here.
> print(dat)
                                   molecule                             tested.target  readout.type  reported.result
1  COC1(c2ccc(Cc3nc4c(C)c(-c5ncco5)nc(N)n4n3)cc2)CCC1  human A2b adenosine receptor (Homo sapiens (Human))         pIC50             8.24
2  Cc1c(-c2ncco2)nc(N)n2nc(CCN3CCc4nn(C5CCC5)cc4C3)nc12  human A2b adenosine receptor (Homo sapiens (Human))         pIC50             6.40
3  Cc1ccc(-c2nc(N)c3nc(Cc4ccccc4)nn3c2C)cc1F  human A2b adenosine receptor (Homo sapiens (Human))         pIC50             5.43
4  Cc1c(-c2ncco2)nc(N)n2nc(CCN3Cc4nnn(C(C)C)c4C(C)C3)nc12 (single isomer, unassigned)  human A2b adenosine receptor (Homo sapiens (Human))         pIC50             5.77
5  Cc1c(-c2ncco2)nc(N)n2nc(CN(Cc3ccc(C(F)(F)F)cc3)CC(F)F)nc12  human A2b adenosine receptor (Homo sapiens (Human))         pIC50             5.70
6  Cc1c(-c2ncco2)nc(N)n2nc(CCN3CCn4c(cnc4C4CCC4)C3)nc12  human A2b adenosine receptor (Homo sapiens (Human))         pIC50             7.25

q: Sample Cc1c(-c2ncco2)nc(N)c2nc(Cc3cccc(C(C)(C)O)c3)nn12 — what was its pIC50?
a: 6.48

q: Sample Cc1c(-c2cc(F)ccc2F)nc(N)c2nc(Cc3ccc(F)cn3)nn12 — what was its pIC50?
a: 7.59

----------
Molecular target: human A2a adenosine receptor (Homo sapiens (Human))
Sequence (P29274 whole entry): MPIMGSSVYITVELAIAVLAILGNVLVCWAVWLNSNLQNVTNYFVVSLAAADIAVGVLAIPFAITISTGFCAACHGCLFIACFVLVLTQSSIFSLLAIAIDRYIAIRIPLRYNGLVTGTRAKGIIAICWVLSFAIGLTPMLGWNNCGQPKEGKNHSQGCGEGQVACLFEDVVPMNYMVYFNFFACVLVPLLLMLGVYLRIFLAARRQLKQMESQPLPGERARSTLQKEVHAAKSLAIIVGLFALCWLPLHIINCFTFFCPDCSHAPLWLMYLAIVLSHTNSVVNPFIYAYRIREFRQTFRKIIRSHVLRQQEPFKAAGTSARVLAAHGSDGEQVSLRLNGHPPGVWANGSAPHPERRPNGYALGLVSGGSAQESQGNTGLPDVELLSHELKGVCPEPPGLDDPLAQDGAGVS
Experiment: A2a binding affinity using radioligand binding, Method (A)
Conditions: Method (A): [3H]SCH58261 filtration binding
Documented IC50 across a set of compounds
Your answer should be a plain number; it is taken to be in nM.

q: Sample Cc1c(-c2ccc(Cl)c(F)c2)nc(N)c2nc(Cc3ccccc3)nn12 [Example 3.16] — what was its IC50?
a: 73.9

q: Sample Cc1c(-c2ccc(F)cc2F)nc(N)c2nc(Cc3ccccc3)nn12 [Example 3.17] — what was its IC50?
a: 82.2

q: Sample Cc1c(-c2ncco2)nc(N)n2nc(CNCc3ccc(C(C)(C)O)cn3)nc12 [Example 11.3] — what was its IC50?
a: 15.5

q: Sample Cc1c(-c2ncco2)nc(N)n2nc(CCS(=O)(=O)C3CC3)nc12 [Example 15.3] — what was its IC50?
a: 7.3

q: Sample Cc1c(-c2cc(F)ccc2F)nc(N)c2nc(Cc3ncccc3F)nn12 [Example 4.8] — what was its IC50?
a: 18.7

----------
Molecular target: human A2a adenosine receptor (Homo sapiens (Human))
Assay: A2a binding affinity using an alternative radioligand binding assay, Method (C)
Settings: Method (C): [3H]CGS21680, CHO.A2a membranes
Source text: The A2a receptor affinity binding assay measured the amount of binding of a tritiated ligand with high affinity for the A2a adenosine receptor to membranes made from HEK293 or CHO cells recombinantly expressing the human A2a adenosine receptor, in the presence of varying concentrations of a compound of the invention. The data were generated using either filtration binding or a homogenous scintillation proximity assay (SPA). […]
readout.type: pIC50
Notebook: values listed as pIC50 are -log10 of the concentration (mol/L).

Example entries begin here.
> print(dat)
                              smiles.string                             tested.target  reported.result
1  Nc1nc(-c2cccc(F)c2)cc2nc(CCN3CC(F)(F)C3)nn12  human A2a adenosine receptor (Homo sapiens (Human))             7.04
2  Nc1nc(-c2ccc(F)cc2)cc2nc(CCN3CC(F)(F)C3)nn12  human A2a adenosine receptor (Homo sapiens (Human))             6.56
3  COc1cccc(-c2cc3nc(CCN4CC(F)(F)C4)nn3c(N)n2)c1  human A2a adenosine receptor (Homo sapiens (Human))             6.41
4  Nc1nc(-c2ccccc2)cc2nc(CCN3CC(F)(F)C3)nn12  human A2a adenosine receptor (Homo sapiens (Human))             6.83
5  Nc1nc(-c2ccccc2F)cc2nc(CCN3CC(F)(F)C3)nn12  human A2a adenosine receptor (Homo sapiens (Human))             6.62

q: Sample COc1ccccc1-c1cc2nc(CCN3CC(F)(F)C3)nn2c(N)n1 — what was its pIC50?
a: 6.18

----------
Documented IC50 across a set of molecules
Target: human A2a adenosine receptor (Homo sapiens (Human))
Test: A2a binding affinity using radioligand binding, Method (A)
Settings: Method (A): [3H]SCH58261 filtration binding
Your answer should be a plain number; it is taken to be in nM.

Example entries begin here.
> print(dat)
                              smiles.string  readout.type  readout.unit  reported.result
1  Cc1c(-c2ncco2)nc(N)n2nc(CN(Cc3ccc(C(C)(C)O)cc3)CC(F)F)nc12          IC50            nM              0.4
2  Cc1c(-c2cnn(C(F)(F)F)c2)nc(N)c2nc(Cc3ccccc3)nn12          IC50            nM              490
3  Cc1c(-c2ncco2)nc(N)n2nc(Cc3ccc([C@H]4C[C@@](C)(O)C4)cc3)nc12          IC50            nM              2.5

Proceeding to the next molecule to report its IC50.
q: # value lookup — system human A2a adenosine receptor (Homo sapiens (Human)), readout IC50, item Cc1c(-c2cccc(Cl)c2)nc(N)c2nc(Cc3ccccc3)nn12
a: 2.7

----------
Biological target: UniProt P29274
Experiment: A2a binding affinity using radioligand binding, Method (A)
Settings: Method (A): [3H]SCH58261 filtration binding
Documented pIC50 across a set of compounds
Notebook: values listed as pIC50 are -log10 of the concentration (mol/L).

Example entries begin here.
> print(dat)
                              smiles.string  readout.type  reported.result
1    Cc1c(-c2ncco2)nc(N)n2nc(Cc3ccccc3)nc12         pIC50             9.30
2  Cc1c(-c2ncco2)nc(N)n2nc(CNCc3ccc(C(F)(F)F)cc3)nc12         pIC50             8.35
3  Cc1c(-c2ccc(F)c(Cl)c2)nc(N)c2nc(Cc3ccccc3)nn12         pIC50             7.57
4  Cc1c(-c2ncco2)nc(N)n2nc(Cn3cc(CCC(C)(C)O)cn3)nc12         pIC50             7.67
5  Cc1nc2c(o1)CN(CCc1nc3c(C)c(-c4ncco4)nc(N)n3n1)C2         pIC50             8.13

q: Sample Cc1c(-c2ncco2)nc(N)n2nc(CCN3CCc4ncn(C5CCCC5)c4C3)nc12 — what was its pIC50?
a: 8.52

q: Sample Cc1c(-c2ncco2)nc(N)n2nc(CCN3CCn4c(cnc4C45CC(C4)C5)C3)nc12 — what was its pIC50?
a: 9.22

q: Sample COc1ccc(-c2nc(N)c3nc(Cc4ccccc4)nn3c2C)cc1Cl — what was its pIC50?
a: 7.96

Data credit: patent US12414952B2
